Target of assay: T1, exemplary TAT frataxin fusion molecule (HIV-1, UniProt Q16595 1-210)
T1 construct: in the bridging assays biotinylated and sulfotagged forms were used; also called TAT-FXN fusion molecule; TAT FXN fusion molecule
T1 sequence: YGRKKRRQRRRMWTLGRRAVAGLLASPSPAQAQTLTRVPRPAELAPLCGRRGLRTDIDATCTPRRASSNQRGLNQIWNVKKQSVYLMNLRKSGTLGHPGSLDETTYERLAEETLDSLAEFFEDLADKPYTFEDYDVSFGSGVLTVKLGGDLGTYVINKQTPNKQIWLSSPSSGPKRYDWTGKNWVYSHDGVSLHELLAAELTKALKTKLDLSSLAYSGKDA
Assay summary: PK sandwich ELISA in human plasma, antibody as capture, HRP anti-frataxin mAb detection
So I've got a bunch of binders here, and I need their S/N at plasma conc. 25.6 ng/mL values.
One number for each entry.

Example results:
antibody 12-3 (antibody, V domains shown, Rabbit monoclonal) VH: QSLEESGGDLVKPGASLTLTCTASGFSFSSGYWICWVRQAPGKGLEWIACIYTGDGDTSYASWAKGRFTISKTSSTTVTLQMTSLTVADTAIYFCARDTSGTFYYNLWGPGTLVAVSS VL: DVVMTQTPSPVSAPVGGTVTINCQASQNIYSNLAWYQQKPGQPPKLLIYGASTLASGVSSRFKGSRSGTEFTLTISDLECADAATYYCQSYVYSSSTADTFGGGTKVVVE :: 33.7
antibody 10-1 (antibody, V domains shown, Rabbit monoclonal) VH: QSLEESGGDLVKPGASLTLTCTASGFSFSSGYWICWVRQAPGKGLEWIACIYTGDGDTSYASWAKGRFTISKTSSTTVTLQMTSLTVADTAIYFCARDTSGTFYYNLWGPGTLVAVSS VL: ELVLTQTASSVSAAVGGTVTISCQSSESVYKTNYLSWFQKKPGQPPKLLIYDASTLASGVPSRFSGSGSGTQFTLTISDLECDDAATYYCAGGYSDDINAFGGGTEVVVK :: 31.3
antibody 12-1 (antibody, V domains shown, Rabbit monoclonal) VH: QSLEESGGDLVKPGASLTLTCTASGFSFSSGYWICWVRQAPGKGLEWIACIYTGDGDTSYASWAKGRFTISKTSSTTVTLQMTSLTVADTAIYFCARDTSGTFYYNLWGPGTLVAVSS VL: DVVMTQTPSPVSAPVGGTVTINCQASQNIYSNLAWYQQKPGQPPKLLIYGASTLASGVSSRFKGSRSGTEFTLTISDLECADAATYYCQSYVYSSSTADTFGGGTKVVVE :: 30.7
antibody 10-4 (antibody, V domains shown, Rabbit monoclonal) VH: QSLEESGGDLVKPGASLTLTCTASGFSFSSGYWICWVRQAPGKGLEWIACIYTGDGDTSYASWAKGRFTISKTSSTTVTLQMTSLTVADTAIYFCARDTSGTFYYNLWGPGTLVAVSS VL: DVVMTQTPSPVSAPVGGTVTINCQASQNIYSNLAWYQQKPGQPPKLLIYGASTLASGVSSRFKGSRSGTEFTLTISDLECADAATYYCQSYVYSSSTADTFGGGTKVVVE :: 25.2

Report S/N at plasma conc. 25.6 ng/mL for every entry below.
1. antibody 10-9 (antibody, V domains shown, Rabbit monoclonal) VH: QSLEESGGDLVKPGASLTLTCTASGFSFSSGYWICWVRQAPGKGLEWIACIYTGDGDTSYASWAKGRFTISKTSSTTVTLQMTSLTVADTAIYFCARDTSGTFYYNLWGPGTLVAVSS VL: AAVLTQTPSSVSAAVGGTVTISCQSSESVYKTNYLSWFQKKPGQPPKLLIYDASTLASGVPSRFSGSGSGTQFTLTISDLECDDAATYYCAGGYSDDINAFGGGTEVEIK
2. antibody 10-5 (antibody, V domains shown, Rabbit monoclonal) VH: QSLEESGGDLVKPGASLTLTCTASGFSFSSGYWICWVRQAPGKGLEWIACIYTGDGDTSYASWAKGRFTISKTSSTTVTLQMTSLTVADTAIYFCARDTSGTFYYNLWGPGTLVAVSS VL: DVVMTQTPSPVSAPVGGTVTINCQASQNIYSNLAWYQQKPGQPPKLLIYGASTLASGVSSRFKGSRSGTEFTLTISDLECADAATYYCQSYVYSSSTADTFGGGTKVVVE
3. antibody 12-8 (antibody, V domains shown, Rabbit monoclonal) VH: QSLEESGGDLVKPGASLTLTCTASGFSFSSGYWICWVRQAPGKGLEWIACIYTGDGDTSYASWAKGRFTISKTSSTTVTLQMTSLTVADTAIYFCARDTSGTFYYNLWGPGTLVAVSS VL: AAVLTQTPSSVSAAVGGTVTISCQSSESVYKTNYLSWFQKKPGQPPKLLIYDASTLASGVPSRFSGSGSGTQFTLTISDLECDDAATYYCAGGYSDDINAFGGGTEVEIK

Response line:
31.7
32.5
30.9
